tested on: RXF 631; test: NCI tumour cell line growth inhibition, 48 h
Active and inactive are the calls of the source. No stated cut-off is given here; in the data, active = GI50 up to about 1.1 µM and inactive = higher.

molecule	system.name	GI50
O=[N+]([O-])c1ccc(-c2ccc(/C=N/n3c(S)nnc3-c3ccc(Cl)cc3)o2)cc1	RXF 631	> 37.4 µM (inactive)
COc1cccc(C2c3cc4c(cc3OC(O)(CO)C2C(=O)O)OCO4)c1.COc1cccc(C2c3cc4c(cc3OC3(O)COC(=O)C23)OCO4)c1 (centres undefined)	RXF 631	75.5 µM (inactive)
CC(=O)OCC1OC(OC2CC3C(C)(C)C(OC(C)=O)CC[C@]3(C)C3CCC45CC4(CC[C@H]5C(C)CC(O)C4OC4(C)C)[C@]23C)C(O)C(O)C1O (some centres undefined)	RXF 631	2.32 µM (inactive)
O=C(NC(=O)c1c(Cl)nc2sccn12)Nc1ccc(Cl)cc1	RXF 631	> 79.4 µM (inactive)
COc1ccc2c(=O)c(-c3cc(OC)c(OC)cc3OC)coc2c1	RXF 631	5.4 µM (inactive)
Cc1c2ccncc2cc2c1sc1ccncc12	RXF 631	2.25 µM (inactive)
O=C(CCc1nnc2s/c(=C\c3ccc(Cl)cc3Cl)c(=O)n12)Nc1cc(Cl)c(Cl)cc1Cl	RXF 631	71.4 µM (inactive)
O=S(=O)(O)SC/C=C\CSS(=O)(=O)O	RXF 631	> 100 µM (inactive)
CSc1ccc2c(cc1=O)[C@@H](NC(=O)c1ccc(F)cc1)CCc1cc(O)c(O)c(O)c1-2	RXF 631	> 100 µM (inactive)
CC(=O)OCc1c(O)nc2c(c1O)-c1ccccc1CC2	RXF 631	69.5 µM (inactive)
CN(C)C(=S)/N=c1\ssc(=S)n1C	RXF 631	> 100 µM (inactive)
C1=NN(Cc2ccccc2)C(N(Cc2ccccc2)Cc2ccccc2)N1 (centres undefined)	RXF 631	16.1 µM (inactive)
O=C1C(Br)=CC2(C=C1Br)CCNC1=C2C(=O)c2ccccc2C1=O	RXF 631	5.69 µM (inactive)
COC(=O)[C@H]1CC(=O)C=C2CCCC21 (some centres undefined)	RXF 631	> 100 µM (inactive)
